- target_of_assay: Bile salt export pump (Homo sapiens, UniProt O95342)
- Sequence (O95342 whole entry): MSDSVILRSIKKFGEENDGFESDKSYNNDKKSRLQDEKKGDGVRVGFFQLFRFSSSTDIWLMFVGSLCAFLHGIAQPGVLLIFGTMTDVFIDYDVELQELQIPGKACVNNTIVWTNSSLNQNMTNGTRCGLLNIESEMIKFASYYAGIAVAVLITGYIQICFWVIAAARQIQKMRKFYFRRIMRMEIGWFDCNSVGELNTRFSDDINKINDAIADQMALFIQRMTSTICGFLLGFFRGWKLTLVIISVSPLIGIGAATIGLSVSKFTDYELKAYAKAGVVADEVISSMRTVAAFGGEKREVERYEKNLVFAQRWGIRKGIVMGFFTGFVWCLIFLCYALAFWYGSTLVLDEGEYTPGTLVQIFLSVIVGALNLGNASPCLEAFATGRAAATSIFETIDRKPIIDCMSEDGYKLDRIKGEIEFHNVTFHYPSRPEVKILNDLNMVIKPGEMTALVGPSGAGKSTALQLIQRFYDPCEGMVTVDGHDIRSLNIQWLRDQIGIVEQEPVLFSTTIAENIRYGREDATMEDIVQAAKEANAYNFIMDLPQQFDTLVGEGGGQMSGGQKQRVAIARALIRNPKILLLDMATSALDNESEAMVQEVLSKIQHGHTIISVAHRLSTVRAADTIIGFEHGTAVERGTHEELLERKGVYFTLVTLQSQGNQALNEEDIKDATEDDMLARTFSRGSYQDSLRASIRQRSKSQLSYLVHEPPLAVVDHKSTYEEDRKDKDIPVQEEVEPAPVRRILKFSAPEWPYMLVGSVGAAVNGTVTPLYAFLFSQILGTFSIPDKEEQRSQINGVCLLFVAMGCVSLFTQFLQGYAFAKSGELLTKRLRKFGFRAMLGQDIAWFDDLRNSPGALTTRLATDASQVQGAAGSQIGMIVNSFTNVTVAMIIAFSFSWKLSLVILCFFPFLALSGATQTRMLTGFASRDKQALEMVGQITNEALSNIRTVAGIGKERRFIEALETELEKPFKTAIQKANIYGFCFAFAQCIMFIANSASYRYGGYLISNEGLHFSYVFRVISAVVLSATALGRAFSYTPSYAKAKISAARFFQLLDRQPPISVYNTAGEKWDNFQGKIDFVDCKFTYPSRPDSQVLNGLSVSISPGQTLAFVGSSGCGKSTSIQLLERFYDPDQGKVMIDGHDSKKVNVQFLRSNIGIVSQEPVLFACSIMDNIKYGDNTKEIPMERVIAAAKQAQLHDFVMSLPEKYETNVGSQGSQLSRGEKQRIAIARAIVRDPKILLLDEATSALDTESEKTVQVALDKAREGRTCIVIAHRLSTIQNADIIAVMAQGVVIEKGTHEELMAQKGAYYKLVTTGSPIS
- protocol_text: TP_TRANSPORTER: competitive inhibition of Taurocholate uptake in membrane vesicles prepared from High Five cells infected with the ABCB11 baculovirus
- Type: functional, cell membranes, BTI-TN-5B1-4, Membrane vesicle
The following molecules are shown together with reported pKi values.
When answering, recall that pKi equals minus log10 of the concentration in mol/L, and write that number alone.

Fill in: pKi on Bile salt export pump (Homo sapiens, UniProt O95342), entry C[C@H](CCC(=O)NCCS(=O)(=O)O)[C@H]1CC[C@H]2[C@@H]3[C@H](O)C[C@@H]4C[C@H](O)CC[C@]4(C)[C@H]3CC[C@]12C [TAUROCHENODEOXYCHOLATE]
4.55

Fill in: pKi on Bile salt export pump (Homo sapiens, UniProt O95342), entry C[C@H](CCC(=O)NCC(=O)O)[C@H]1CC[C@H]2[C@@H]3[C@H](O)C[C@@H]4C[C@H](O)CC[C@]4(C)[C@H]3CC[C@]12C [GLYCOCHENODEOXYCHOLATE]
5.15

Fill in: pKi on Bile salt export pump (Homo sapiens, UniProt O95342), entry C[C@H](CCC(=O)NCC(=O)O)[C@H]1CC[C@H]2[C@@H]3[C@H](O)C[C@@H]4C[C@H](O)CC[C@]4(C)[C@H]3C[C@H](O)[C@]12C
4.96

Attribution: ChEMBL document CHEMBL2073959
